Reference for the values: PubChem BioAssay (NCI)

Below is a list of entries, each paired with its recorded TGI value.
tested on: NCI-H460 lung; assay: NCI tumour cell line growth inhibition, 48 h

Some solved cases for reference:
NCCCCCn1c2c(c3ccccc3c1=O)C(=O)c1ccccc1-2; 1.02 µM
CCN=c1nc2sc3c(c2c(NC(=S)NCC)s1)CCN(N1CCc2c(sc4nc(=NCC)sc(NC(=S)NCC)c24)C1)C3; > 100 µM
COC(=O)C1[C@@H](C(=O)OC)C(=O)O[C@H]1c1cc(OC)c(OC)c(OC)c1 (some centres undefined); > 100 µM
CN(C)CCONC(=O)C12CC3CC(CC(C3)C1)C2; > 100 µM

Let us examine a further case.
Fill in the blank: the reported TGI of O=C1C(Cl)C2(CC(/C=C/c3cccs3)=NN2c2cccc(S(=O)(=O)O)c2)N1c1nc2ccccc2s1 (centres undefined) is ____.
> 100 µM

====

Below is a list of entries, each paired with its recorded log10 TGI value.
test system: MDA-MB-231 breast; experiment: NCI tumour cell line growth inhibition, 48 h
The common logarithm of TGI in µM is what is listed.

Some solved cases for reference:
C=CCc1cccc2cc(C(=O)NC3CCCCC3)c(=N)oc12; 1.56
C=C1C(O)C2C(=C(CCC3CC3)C13CC3)C(=O)C(C)(C)C2O (stereo unspecified); 2.00
COc1cc(-c2nn(-c3cccc(NC(=O)Nc4cccc(C(F)(F)F)c4)c3)cc2-c2ccncc2)ccc1Cl; 0.35
CCCCCCCCCCCC[C@@H](O)[C@H]1CC[C@H]([C@H]2CC[C@H]([C@H](O)CC[C@H](O)CCCCCCCC3=C[C@H](C)OC3=O)O2)O1; 0.80
O=[N+]([O-])/C(C(Cl)=C(Cl)Cl)=C(/Br)SCc1ccccc1; 0.78
CCn1c2ccccc2c2cc(N=Nc3ccc(C#N)cc3)ccc21; 1.77

Fill in the blank: the reported log10 TGI of CCCCCCCCCCCCCCCCCCOP(=O)([O-])OCC[N+](C)(C)C is ____.
0.54

====

tested on: MDA-MB-231 breast; test: NCI tumour cell line growth inhibition, 48 h
measured.parameter: TGI

COc1ccc(C(NS(=O)(=O)c2ccc(C)cc2)c2c(C(CBr)OC)c3ccccc3n2S(=O)(=O)c2ccccc2)cc1OC (centres undefined); > 100 µM

Fill in the blank: the reported TGI of CCOC(CNc1nn2c(C)nnc2s1)OCC is ____.
> 100 µM

Fill in the blank: the reported TGI of CC/C=C/C(CC)C/C(C)=C\[C@]1(CC)C[C@H](CC)[C@H](CC(=O)O)OO1 (some centres undefined) is ____.
3.31 µM

Fill in the blank: the reported TGI of Nc1c(C(=O)c2cccc(OC[C@@H](O)CO)c2)cnn1-c1ccc(F)cc1 is ____.
> 25 µM

Fill in the blank: the reported TGI of O=C1C(Cl)C2(CC(/C=C/c3cccs3)=NN2c2cccc(S(=O)(=O)O)c2)N1c1nc2ccccc2s1 (centres undefined) is ____.
> 100 µM

Fill in the blank: the reported TGI of c1ccc2c(c1)Oc1cccc3cccc-2c13 is ____.
> 100 µM

Fill in the blank: the reported TGI of Cc1nc2cc(-c3nn(C(C)C)c4ncnc(N)c34)ccc2o1 is ____.
> 3.93 µM

Fill in the blank: the reported TGI of C#CC[C@@H]1C[C@]2(C)[C@H]3CC[C@@H]4[C@H]5C(C(=C)C)CC[C@]5(C(=O)NCCCCN)CC[C@@]4(C)[C@]3(C)CC[C@H]2C(C)(C)[C@H]1OC(C)=O (some centres undefined) is ____.
3.45 µM

Fill in the blank: the reported TGI of Nn1c(SCC(=O)O)nc2ccccc2c1=O is ____.
> 100 µM
